Test system: ORYSAT (Rice, Tebonnet)
Experiment: Postemergence herbicidal evaluation
Format: in vivo, Oryza sativa, (L.) Tebonnet
Conditions: postemergence, rate 0.0620 kg/ha
Experimental: In the tests, seedling plants are grown in jiffy flats for about two weeks. […] After spraying, the plants are placed on greenhouse benches and are cared for in accordance with conventional greenhouse procedures. From four to five weeks after treatment, the seedling plants are examined and rated according to the rating system set forth below. Where more than one test is involved for a given compound, the data are averaged. Results of herbicide evaluation are expressed on a rating scale (0-9). […]
Answer each item with its documented ORYSAT herbicidal rating.
Could you respond with only the numeric value?

Bench note: what ORYSAT herbicidal rating did CC1=CC(C)(C)OC(c2nsc3ccc(-n4c(=O)cc(C(F)(F)F)n(C)c4=O)cc23)C1 (stereo not shown) show? 4.5

Note, next up: Cn1c(C(F)(F)F)cc(=O)n(-c2ccc3snc(C4OCC(CS(C)(=O)=O)O4)c3c2)c1=O (single isomer, unassigned) 5.5

Cool, now CCCC1COC(c2nsc3ccc(-n4c(=O)cc(C(F)(F)F)n(C)c4=O)cc23)O1 (stereo not shown) 4.0

Would you mind doing `C=C1COC(c2nsc3ccc(-n4c(=O)cc(C(F)(F)F)n(C)c4=O)cc23)OC1` as well? 5.0

Then what about the molecule `Cc1nn(-c2nsc3ccc(-n4c(=O)cc(C(F)(F)F)n(C)c4=O)cc23)c(C)c1C` ? 1.5

Follow-up item: CSCC1COC(c2nsc3ccc(-n4c(=O)cc(C(F)(F)F)n(C)c4=O)cc23)O1 (stereo not shown) 6.5

Similarly, C[C@@H]1OC(c2nsc3cc(F)c(-n4c(=O)cc(C(F)(F)F)n(C)c4=O)cc23)O[C@@H]1C (stereo partly shown) ? 6.0
